- TARGET DESC: fibroblast growth factor (FGF)
- MEASUREMENT PROTOCOL: macromolecular interaction on chip, FGF
- Format: binding
- MEASUREMENT CONTEXT: compound fixed on the chip; FGF 1 μM
MEASURED ENDPOINT: KD FGF

Known results for molecules:
CC[C@@]1(O)C(=O)OCc2c1cc1n(c2=O)Cc2c-1nc1cc3c(cc1c2CCc1ccc(N2CCOCC2)cc1)OCO3: No combination
CC[C@@]1(O)C(=O)OCc2c1cc1n(c2=O)Cc2c-1nc1cc3c(cc1c2/C=C/C=C/c1ccccc1)OCO3: No combination
CC[C@@]1(O)C(=O)OCc2c1cc1n(c2=O)Cc2c-1nc1cc3c(cc1c2/C=C/c1ccccc1F)OCO3: No combination
CC[C@@]1(O)C(=O)OCc2c1cc1n(c2=O)Cc2c-1nc1cc3c(cc1c2CCN1CCCCC1)OCO3: can combine
CC[C@@]1(O)C(=O)OCc2c1cc1n(c2=O)Cc2c-1nc1cc3c(cc1c2CCc1ccc(N2CCCC2)cc1)OCO3: No combination
CC[C@@]1(O)C(=O)OCc2c1cc1n(c2=O)Cc2c-1nc1cc3c(cc1c2/C=C/c1ccc(F)c(F)c1)OCO3: can combine

Give its KD FGF value. Item: CC[C@@]1(O)C(=O)OCc2c1cc1n(c2=O)Cc2c-1nc1cc3c(cc1c2/C=C/c1ccc(F)cc1)OCO3 No combination

Now this one: CC[C@@]1(O)C(=O)OCc2c1cc1n(c2=O)Cc2cc3c(CN(C)C)c(O)ccc3nc2-1 [Topotecan, reference compound] No combination

Now this one: CC[C@@]1(O)C(=O)OCc2c1cc1n(c2=O)Cc2c-1nc1cc3c(cc1c2CCc1cccc(N2CCOCC2)c1)OCO3 No combination

* * *

- Tested on: MDA-MB-231 cells (human breast cancer cells)
- MEASUREMENT PROTOCOL: growth inhibition of tumor cells in vitro, MDA-MB-231
- Type: cell-based
- MEASUREMENT CONTEXT: Homo sapiens; MDA-MB-231 cell line; read-out: IC50 MDA-MB-231
MEASURED ENDPOINT: pIC50
A value of pIC50 is the negative decimal logarithm of a concentration given in moles per litre.

Give its pIC50 value. Item: CC[C@@]1(O)C(=O)OCc2c1cc1n(c2=O)Cc2c-1nc1cc3c(cc1c2-c1ccsc1)OCO3 8.71

Now this one: CC[C@@]1(O)C(=O)OCc2c1cc1n(c2=O)Cc2cc3c(CN(C)C)c(O)ccc3nc2-1 [Topotecan, reference compound] 6.91

Now this one: CC[C@@]1(O)C(=O)OCc2c1cc1n(c2=O)Cc2c-1nc1cc3c(cc1c2-c1cnn(C)c1)OCO3 8.42

Now this one: CC[C@@]1(O)C(=O)OCc2c1cc1n(c2=O)Cc2c-1nc1cc3c(cc1c2-c1ccoc1)OCO3 7.08

* * *

- TARGET DESC: fibroblast growth factor (FGF)
- MEASUREMENT PROTOCOL: macromolecular interaction on chip, FGF
- Assay type: binding
- MEASUREMENT CONTEXT: compound fixed on the chip; FGF 1 μM
- Procedure: The experimental scheme: 1. Fixed the compounds on the chip: Mobile phase were EGF (1 μM), FGF (1 μM), HSP90 (100 nM), FKBP12 (100 nM). Detection whether small molecule compounds combined with the provided protein of heat shock protein (HSP90), epidermal growth factor (EGF) and fibroblast growth factor (FGF); and provide relevant data of combined dynamics.
MEASURED ENDPOINT: KD FGF

Known results for compounds:
CC[C@@]1(O)C(=O)OCc2c1cc1n(c2=O)Cc2c-1nc1cc3c(cc1c2CCc1ccc(N2CCOCC2)c(F)c1)OCO3: No combination
CC[C@@]1(O)C(=O)OCc2c1cc1n(c2=O)Cc2c-1nc1cc3c(cc1c2-c1ccsc1)OCO3: No combination
CC[C@@]1(O)C(=O)OCc2c1cc1n(c2=O)Cc2c-1nc1cc3c(cc1c2/C=C/c1cccc(F)c1)OCO3: No combination
CC[C@@]1(O)C(=O)OCc2c1cc1n(c2=O)Cc2c-1nc1cc3c(cc1c2/C=C/c1cc(F)c(F)c(F)c1)OCO3: can combine

Shifting focus to the compound that follows.
Give its KD FGF value. Item: CC[C@@]1(O)C(=O)OCc2c1cc1n(c2=O)Cc2c-1nc1cc3c(cc1c2CCN1CCOCC1)OCO3 can combine
